This collection of values is drawn from the Human Domainome abundance scans (Beltran et al. 2025).

B1: Chromodomain-helicase-DNA-binding protein 4, residues 444 to 496; numbered along this chain, Q14839 (parent)
chain: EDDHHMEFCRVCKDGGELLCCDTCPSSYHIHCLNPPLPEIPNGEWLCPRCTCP

variants of: B1; assay: abundance fitness (aPCA) (normalised: wild type 0, dead -1); higher = more abundant; growth selection in yeast, the domain comes from the species named; settings: Homo sapiens
QUANTITY KIND: abundance fitness
Returns: the value as a bare number; no unit string appended.

[Q] Answer with the recorded abundance fitness for the variant listed here: G43C
[A] -0.16

[Q] Answer with the recorded abundance fitness for the variant listed here: L19S
[A] -0.291

[Q] Answer with the recorded abundance fitness for the variant listed here: D22Q
[A] -0.067

[Q] Answer with the recorded abundance fitness for the variant listed here: W45G
[A] -0.487

[Q] Answer with the recorded abundance fitness for the variant listed here: C20Q
[A] 0.17

[Q] Answer with the recorded abundance fitness for the variant listed here: C9S
[A] -0.849

[Q] Answer with the recorded abundance fitness for the variant listed here: L46T
[A] -0.02

[Q] Answer with the recorded abundance fitness for the variant listed here: D3E
[A] -0.187

[Q] Answer with the recorded abundance fitness for the variant listed here: N42W
[A] -0.253

[Q] Answer with the recorded abundance fitness for the variant listed here: E7Q
[A] -0.224

[Q] Answer with the recorded abundance fitness for the variant listed here: L18D
[A] -1.3

[Q] Answer with the recorded abundance fitness for the variant listed here: I40L
[A] 0.01

[Q] Answer with the recorded abundance fitness for the variant listed here: C21T
[A] -0.902

[Q] Answer with the recorded abundance fitness for the variant listed here: E17A
[A] -0.309

[Q] Answer with the recorded abundance fitness for the variant listed here: C9H
[A] -0.79
